System: D.folliculorum
Assay: Preliminary in-vitro screening of monomer compounds for effect on survival time of Demodex mites
Details: 35 µL monomer compound solution in 10% DMSO; 20° C., humidity 96%; observed every 2 hours; mean ± SD
Metric name: Survival time (hours) of D.folliculorum in vitro (h)
Entry rule: numbers only, all in h.

Name the recorded Survival time (hours) of D.folliculorum in vitro of the compound listed here: C=C[C@H]1[C@H](O[C@@H]2O[C@H](CO)[C@@H](O)[C@H](O)[C@H]2O)OC=C2C(=O)OCC[C@]21O
59.68

Name the recorded Survival time (hours) of D.folliculorum in vitro of the compound listed here: C[C@@H]1[C@H]2[C@H](O[C@@H]3O[C@H](CO)[C@@H](O)[C@H](O)[C@H]3O)OC=C(C(=O)O)[C@H]2C[C@@H]1O
61.56

Name the recorded Survival time (hours) of D.folliculorum in vitro of the compound listed here: C=C[C@H]1[C@H](O[C@@H]2O[C@H](CO)[C@@H](O)[C@H](O)[C@H]2O)OC=C2C(=O)OCC[C@H]21 [Sweroside]
60.79

Name the recorded Survival time (hours) of D.folliculorum in vitro of the compound listed here: COC(=O)c1c2c(c3ccccc3c1O)OC(C)(C)C=C2
61.10

Name the recorded Survival time (hours) of D.folliculorum in vitro of the compound listed here: C=C(C)[C@@H]1CC[C@]2(C)[C@H](CC=C3[C@@H]4[C@@H](C)[C@H](C)CC[C@]4(C)CC[C@]32C)[C@@]1(C)CCC(=O)O
63.41

Name the recorded Survival time (hours) of D.folliculorum in vitro of the compound listed here: COc1cc2ccc(=O)oc2cc1O
54.67

Name the recorded Survival time (hours) of D.folliculorum in vitro of the compound listed here: C=C[C@@H]1C2=CCOC(=O)C2=CO[C@H]1O[C@@H]1O[C@H](CO)[C@@H](O)[C@H](O)[C@H]1O [Gentiopicroside]
37.31
